Assay name: Apparent permeability from apical to basolateral side in human Caco2 cells at 10 uM by LC-MS analysis
Assay type: ADME, cell-based
Setup conditions: Caco-2
Answer each item with its documented Papp A→B at 10 µM.
Answers are plain numbers, in ×10⁻⁶ cm/s.

Below, each entry is followed by its recorded Papp A→B at 10 µM result.
[
  {
    "Compound": "CC(C)(C)NC(=O)Nc1nc(Cl)c(-c2ccc(-c3cccnc3)cc2)n(CC(=O)Nc2ccccc2C(=O)NS(=O)(=O)c2ccc(C(F)(F)F)cc2)c1=O",
    "Experimental endpoint": "Papp A→B at 10 µM",
    "Measured result": 7
  },
  {
    "Compound": "CC(C)(C)NC(=O)Nc1nc(Cl)c(CCc2ccccc2)n(CC(=O)Nc2ccccc2C(=O)NS(=O)(=O)c2ccc(C(F)(F)F)cc2)c1=O",
    "Experimental endpoint": "Papp A→B at 10 µM",
    "Measured result": 0.3
  },
  {
    "Compound": "CCCCCc1c(Cl)nc(NC(=O)NC(C)(C)C)c(=O)n1CC(=O)Nc1ccccc1C(=O)NS(=O)(=O)c1ccc(C(F)(F)F)cc1",
    "Experimental endpoint": "Papp A→B at 10 µM",
    "Measured result": 0.04
  },
  {
    "Compound": "CC(C)(C)NC(=O)Nc1nc(Cl)c(CCC2CCCCC2)n(CC(=O)Nc2ccccc2C(=O)NS(=O)(=O)c2ccc(C(F)(F)F)cc2)c1=O",
    "Experimental endpoint": "Papp A→B at 10 µM",
    "Measured result": 0.12
  },
  {
    "Compound": "Cc1c(Cl)nc(NC(=O)NC(C)(C)C)c(=O)n1C(C(=O)Nc1ccccc1C(=O)NS(=O)(=O)c1ccc(C(F)(F)F)cc1)c1ccccc1 (racemic)",
    "Experimental endpoint": "Papp A→B at 10 µM",
    "Measured result": 1.1
  }
]

Moving on to another compound below.
Item: "CC(C)(C)NC(=O)Nc1nc(Cl)c(COCc2ccccc2)n(CC(=O)Nc2ccccc2C(=O)NS(=O)(=O)c2ccc(C(F)(F)F)cc2)c1=O" | Papp A→B at 10 µM: 4

----------
Assay name: Half life in human liver microsomes at 1 uM by LC-MS/MS analysis
Type: ADME
Experimental endpoint: half-life at 1 µM (min)
One number for each entry, in min.

[
  {
    "Item smiles": "CC(C)(C)NC(=O)Nc1nc(Cl)c(-c2ccc(-c3cccnc3)cc2)n(CC(=O)Nc2ccccc2C(=O)NS(=O)(=O)c2ccc(C(F)(F)F)cc2)c1=O",
    "Measured result": 82
  },
  {
    "Item smiles": "CCCCCc1c(Cl)nc(NC(=O)NC(C)(C)C)c(=O)n1CC(=O)Nc1ccccc1C(=O)NS(=O)(=O)c1ccc(C(F)(F)F)cc1",
    "Measured result": 42
  }
]

API: the following record is the query input.
// half-life at 1 µM value for "CC(C)(C)NC(=O)Nc1nc(Cl)c(CCC2CCCCC2)n(CC(=O)Nc2ccccc2C(=O)NS(=O)(=O)c2ccc(C(F)(F)F)cc2)c1=O" : 27

----------
Assay name: Intrinsic clearance in human liver microsomes at 1 uM up to 40 mins by LC-MS/MS analysis in presence of NADPH
Type: ADME
Setup conditions: read-out: CLH
Experimental endpoint: microsomal CLint at 1 µM (µL/min/mg)
Answers are plain numbers, in µL/min/mg.

See these solved cases before continuing.
[
  {
    "Compound": "CC(C)(C)NC(=O)Nc1nc(Cl)c(CCC2CCCCC2)n(CC(=O)Nc2ccccc2C(=O)NS(=O)(=O)c2ccc(C(F)(F)F)cc2)c1=O",
    "Measured result": 52
  },
  {
    "Compound": "Cc1c(Cl)nc(NC(=O)NC(C)(C)C)c(=O)n1C(C(=O)Nc1ccccc1C(=O)NS(=O)(=O)c1ccc(C(F)(F)F)cc1)c1ccccc1 (racemic)",
    "Measured result": 26
  }
]

microsomal CLint at 1 µM for "CCCCCc1c(Cl)nc(NC(=O)NC(C)(C)C)c(=O)n1CC(=O)Nc1ccccc1C(=O)NS(=O)(=O)c1ccc(C(F)(F)F)cc1" is 33

----------
System tested: NS3 protease (Hepacivirus C, UniProt C1KIQ2, D168V)
Assay name: Inhibition of full-length HCV NS3 protease D168V mutant
Provide the reported Ki of each item.

[
  {
    "Molecule": "CC(C)(C)NC(=O)Nc1nc(Cl)c(CCC2CCCCC2)n(CC(=O)Nc2ccccc2C(=O)NS(=O)(=O)c2ccc(C(F)(F)F)cc2)c1=O",
    "Ki": "320 nM"
  },
  {
    "Molecule": "CCC[C@H](NC(=O)[C@@H]1[C@H]2CCC[C@H]2CN1C(=O)[C@@H](NC(=O)[C@@H](NC(=O)c1cnccn1)C1CCCCC1)C(C)(C)C)C(=O)C(=O)NC1CC1",
    "Ki": "3.9 nM"
  },
  {
    "Molecule": "COc1ccc2c(O[C@@H]3C[C@H]4C(=O)N[C@]5(C(=O)O)C[C@H]5/C=C\\CCCCC[C@H](NC(=O)OC5CCCC5)C(=O)N4C3)cc(-c3csc(NC(C)C)n3)nc2c1",
    "Ki": "200 nM"
  },
  {
    "Molecule": "Cc1c(Cl)nc(NC(=O)NC(C)(C)C)c(=O)n1C(C(=O)Nc1ccccc1C(=O)NS(=O)(=O)c1ccc(C(F)(F)F)cc1)c1ccccc1 (racemic)",
    "Ki": "1260 nM"
  }
]

Turning to the following molecule.
# Ki (molecule: "CC(C)(C)NC(=O)Nc1nc(Cl)c(-c2ccc(-c3cccnc3)cc2)n(CC(=O)Nc2ccccc2C(=O)NS(=O)(=O)c2ccc(C(F)(F)F)cc2)c1=O" ) is 1520 nM

----------
System tested: NS3 protease (Hepatitis C virus subtype 1b, UniProt Q0ZMF1, A156T)
Assay name: Inhibition of full-length HCV NS3 protease A156T mutant
Experimental endpoint: log10 of Ki (log10 of the value in nM)
For clarity, the numbers are log10 values of Ki expressed in nM.

Example entries begin here.
[
  {
    "Compound": "Cc1c(Cl)nc(NC(=O)NC(C)(C)C)c(=O)n1C(C(=O)Nc1ccccc1C(=O)NS(=O)(=O)c1ccc(C(F)(F)F)cc1)c1ccccc1 (racemic)",
    "log10 of Ki": 2.97
  },
  {
    "Compound": "CCC[C@H](NC(=O)[C@@H]1[C@H]2CCC[C@H]2CN1C(=O)[C@@H](NC(=O)[C@@H](NC(=O)c1cnccn1)C1CCCCC1)C(C)(C)C)C(=O)C(=O)NC1CC1 [TELAPREVIR]",
    "log10 of Ki": 3.79
  },
  {
    "Compound": "CC(C)(C)NC(=O)Nc1nc(Cl)c(-c2ccc(-c3cccnc3)cc2)n(CC(=O)Nc2ccccc2C(=O)NS(=O)(=O)c2ccc(C(F)(F)F)cc2)c1=O",
    "log10 of Ki": 2.87
  }
]

# batch size: 2; output log10 of Ki per entry
1. COc1ccc2c(O[C@@H]3C[C@H]4C(=O)N[C@]5(C(=O)O)C[C@H]5/C=C\CCCCC[C@H](NC(=O)OC5CCCC5)C(=O)N4C3)cc(-c3csc(NC(C)C)n3)nc2c1 [CILUPREVIR]
2. CC(C)(C)NC(=O)Nc1nc(Cl)c(CCC2CCCCC2)n(CC(=O)Nc2ccccc2C(=O)NS(=O)(=O)c2ccc(C(F)(F)F)cc2)c1=O

Result:
1: 2.08; 2: 2.23

----------
I'd be grateful if you could share measured microsomal CLint at 1 µM for these entries.
Assay name: Intrinsic clearance in human liver microsomes at 1 uM up to 40 mins by LC-MS/MS analysis in presence of NADPH
Format: ADME
Setup conditions: read-out: CLH
One number for each entry, in µL/min/mg.

[
  {
    "Item smiles": "CC(C)(C)NC(=O)Nc1nc(Cl)c(-c2ccc(-c3cccnc3)cc2)n(CC(=O)Nc2ccccc2C(=O)NS(=O)(=O)c2ccc(C(F)(F)F)cc2)c1=O",
    "Experimental endpoint": "microsomal CLint at 1 µM",
    "Measured result": 17
  }
]

Next molecule, please.
Please fill in: microsomal CLint at 1 µM reported for "CC(C)(C)NC(=O)Nc1nc(Cl)c(COCc2ccccc2)n(CC(=O)Nc2ccccc2C(=O)NS(=O)(=O)c2ccc(C(F)(F)F)cc2)c1=O" = 17

----------
What Ki was measured for each of the following?
Assay name: Inhibition of full-length wild-type HCV NS3 protease
Set-up: species or system Hepacivirus hominis
Give bare numbers, in nM.

[
  {
    "Molecule": "Cc1c(Cl)nc(NC(=O)OC(C)(C)C)c(=O)n1C(C(=O)Nc1ccccc1C(=O)NS(=O)(=O)c1ccc(C(F)(F)F)cc1)c1ccccc1 (stereo not drawn)",
    "Ki, nM": 3800
  },
  {
    "Molecule": "CC(C)(C)NC(=O)Nc1nc(Cl)c(Cc2ccccc2Br)n(CC(=O)Nc2ccccc2C(=O)NS(=O)(=O)c2ccc(C(F)(F)F)cc2)c1=O",
    "Ki, nM": 250
  },
  {
    "Molecule": "Cc1c(Cl)nc(NC(=O)NC(C)(C)C)c(=O)n1C(C(=O)Nc1ccccc1C(=O)NS(=O)(=O)c1ccc(C(F)(F)F)cc1)c1ccccc1 (racemic)",
    "Ki, nM": 390
  },
  {
    "Molecule": "CC(C)(C)NC(=O)Nc1nc(Cl)c(-c2cccc(-c3cccnc3)c2)n(CC(=O)Nc2ccccc2C(=O)NS(=O)(=O)c2ccc(C(F)(F)F)cc2)c1=O",
    "Ki, nM": 390
  }
]

Kindly give each listed record's Ki.
1. CC(C)(C)NC(=O)Nc1nc(Cl)c(CCC2CCCCC2)n(CC(=O)Nc2ccccc2C(=O)NS(=O)(=O)c2ccc(C(F)(F)F)cc2)c1=O
2. CC(C)(C)NC(=O)Nc1nc(Cl)c(Cc2ccc(-c3cccnc3)cc2)n(CC(=O)Nc2ccccc2C(=O)NS(=O)(=O)c2ccc(C(F)(F)F)cc2)c1=O
3. CC(C)(C)NC(=O)Nc1nc(Cl)c(Cc2ccccc2)n(CC(=O)NC(CC2CCC2)C(=O)C(N)=O)c1=O (stereo not drawn)
4. CC(C)(C)NC(=O)Nc1nc(Cl)c(-c2cccc(Br)c2)n(CC(=O)Nc2ccccc2C(=O)NS(=O)(=O)c2ccc(C(F)(F)F)cc2)c1=O
5. CC(C)(C)NC(=O)Nc1nc(Cl)c(Cc2ccc3ccccc3c2)n(CC(=O)Nc2ccccc2C(=O)NS(=O)(=O)c2ccc(C(F)(F)F)cc2)c1=O

Result:
110
540
7100
600
330

Ref: ChEMBL document CHEMBL3124833
